// provenance: patent US4875922A

- System: Sunflower
- method notes: Modified Intermediate Retardant Test, sunflower
- Type: in vivo
- condition notes: 2000 g/ha, foliar only spray, height to apex 14 days after treatment
quantity: […] IN HEIGHT, SR (Foliar) (%)

compound: CCCCC#CC(O)(c1cncnc1)C(C)(C)C (centres unmarked)
experimental system: Sunflower
meas value: 19
--
compound: CCCCCC#CC(O)(c1cncnc1)C(C)(C)C (centres unmarked)
experimental system: Sunflower
meas value: 13
--
compound: CCCCCC#CC(O)(c1cncnc1)C(C)C (centres unmarked)
experimental system: Sunflower
meas value: 2
--
compound: CCC/C=C\C(O)(c1cncnc1)C(C)C (centres unmarked)
experimental system: Sunflower
meas value: 0
--
compound: CCCCCCC#CC(O)(c1cncnc1)C(C)C (centres unmarked)
experimental system: Sunflower
meas value: 0
